Just for reference, the Biogen ADME set (Fang et al. 2023) is where these values come from.

Reported values of intrinsic clearance, rat liver microsomes for individual entries

# count of solved cases: 4
[
  {
    "Compound": "CCNC(=O)C1CN(c2cccc(C#N)n2)C1",
    "Measured": "≤ 10.7 mL/min/kg"
  },
  {
    "Compound": "O=C(CSC1CCCC1)N1CCC(Cn2cccn2)CC1",
    "Measured": "747 mL/min/kg"
  },
  {
    "Compound": "O=C(c1cccc2ccccc12)N1CCCC(C(=O)N2CCc3ccccc3C2)C1 (stereo not given)",
    "Measured": "4470 mL/min/kg"
  },
  {
    "Compound": "OCCN1CCC(c2ccncn2)CC1",
    "Measured": "35.2 mL/min/kg"
  }
]

Next, consider the following compound.
Asked: intrinsic clearance, rat liver microsomes lookup needed for `CN(CCc1ccncc1)c1ncccc1C#N` , thanks.
Given back: 552 mL/min/kg
